Entry source: paper PMC5540273

- Test system: BMX
- setupConditions: concentration: 1 μM, replicates: in singlicate; n = 1;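 note: KINOMEscan kinase panel screen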
# met = %Inh below 9% (exclusive); not met = %Inh at/above 9%

Known results for molecules:
[
  {
    "molecule": "COc1ccc(Nc2nccc(NCCNC(=O)Nc3ccccc3F)n2)cc1",
    "assignedClass": "met"
  },
  {
    "molecule": "O=C(O)COc1ncnc2cc(-c3ccc4[nH]ncc4c3)sc12",
    "assignedClass": "met"
  },
  {
    "molecule": "Fc1cc(Cl)ccc1Nc1ccnc2cc(I)ccc12",
    "assignedClass": "met"
  },
  {
    "molecule": "O=C1NC(=O)C(N2CCc3ccccc32)=C1c1ccccc1Cl",
    "assignedClass": "not met"
  },
  {
    "molecule": "COc1ccc(CNC(=O)NC2CCN(c3ccnc(Nc4cc(OC)c(OC)c(OC)c4)n3)C2)cc1 (stereo not drawn)",
    "assignedClass": "not met"
  }
]

Task item: # check: %Inh < 9% for Cc1cc(NCC(c2ccccc2)c2ccccc2)nc(NCc2ccc(C(F)(F)F)cc2)n1
Reply: not met

Task item: Dear reviewer, please state whether COc1ccc2nc(-c3cccc(C)n3)nc(Nc3ccncc3)c2c1 has %Inh strictly beneath 9%.
Reply: not met

Task item: Is 9% strictly greater than the molecule's reported %Inh? molecule: O=c1cc(N2CCOCC2)nc2n(Cc3cccc(Cl)c3Cl)ccn12
Reply: not met

----------
- Tested on: CDC2L5
- Construct: gene CDK13
- setupConditions: concentration: 1 μM, replicates: in singlicate; n = 1
metricName: %Inh (%)
Value expressed in %; do not type the unit.

Previously resolved entries follow.
[
  {
    "compound": "NC(=O)c1nnc2ccccc2c1N",
    "%Inh (%)": 11
  },
  {
    "compound": "COc1ccccc1CNC(=O)c1cc(C(=O)c2ccccc2C)c[nH]1",
    "%Inh (%)": 0
  },
  {
    "compound": "Cc1cccc(-c2cc(Nc3ccncc3)c3ccccc3n2)n1",
    "%Inh (%)": 0
  }
]

Entry O=C(Nc1n[nH]c2cc(-c3cccc(F)c3F)ccc12)C1CC1 , %Inh reported as 8

COc1cccc(NC(=O)NC2CCN(c3ccnc(Nc4ccc(F)cc4)n3)C2)c1 (centres unmarked) yielded %Inh of 0

----------
- Tested on: MLCK
- Construct: gene MYLK3
- setupConditions: concentration: 1 μM, replicates: in singlicate; n = 1
metricName: %Inh (%)
Dear colleague, please return just the value in %, with no unit written.

// assay MLCK, entry Cn1ccc2ncnc(Oc3ccc(NC(=O)Nc4ccccc4)cc3)c21 , %Inh value = 0

// returns %Inh for COc1cccc(-c2cc(-c3c[nH]nc3-c3ccccn3)ccn2)c1 with MLCK; value = 8

The reported %Inh value, MLCK, for O=c1cc(N2CCOCC2)nc2n(Cc3cccc(Cl)c3Cl)ccn12 reads 16

// assay MLCK, entry CC(=O)Nc1nc2cnc(Nc3cc(NC(=O)c4cccc(CCC#N)c4)ccc3C)nc2s1 , %Inh value = 0

Entry Nc1ncnc2[nH]c(-c3ccccc3)nc12 under MLCK had %Inh of 0

The molecule O=C(Nc1n[nH]c2cc(-c3cccc(F)c3F)ccc12)C1CC1 , when measured on MLCK, yielded %Inh of 18

Test item COc1ccccc1CNC(=O)c1cc(C(=O)c2ccccc2C)c[nH]1 ; MLCK; reported %Inh was 9

GET /values?item= Cc1cc(-c2ccc3c(c2)CC[C@@H](N[C@@H](C)c2ccccc2)C3)cnc1N.Cl &system= MLCK returns %Inh: 0

%Inh for MLCK with input Cl.O=C(Nc1cccc(-c2nn3ncccc3c2-c2ccnc(Nc3cccnc3)n2)c1)c1c(F)cccc1F equals 0
